- system-tested: Human HER3, endogenous, on human cancer cell lines (SK-Br-3, MCF7, BT-474) (human, UniProt P21860 20-1342)
- Sequence (P21860 20-1342): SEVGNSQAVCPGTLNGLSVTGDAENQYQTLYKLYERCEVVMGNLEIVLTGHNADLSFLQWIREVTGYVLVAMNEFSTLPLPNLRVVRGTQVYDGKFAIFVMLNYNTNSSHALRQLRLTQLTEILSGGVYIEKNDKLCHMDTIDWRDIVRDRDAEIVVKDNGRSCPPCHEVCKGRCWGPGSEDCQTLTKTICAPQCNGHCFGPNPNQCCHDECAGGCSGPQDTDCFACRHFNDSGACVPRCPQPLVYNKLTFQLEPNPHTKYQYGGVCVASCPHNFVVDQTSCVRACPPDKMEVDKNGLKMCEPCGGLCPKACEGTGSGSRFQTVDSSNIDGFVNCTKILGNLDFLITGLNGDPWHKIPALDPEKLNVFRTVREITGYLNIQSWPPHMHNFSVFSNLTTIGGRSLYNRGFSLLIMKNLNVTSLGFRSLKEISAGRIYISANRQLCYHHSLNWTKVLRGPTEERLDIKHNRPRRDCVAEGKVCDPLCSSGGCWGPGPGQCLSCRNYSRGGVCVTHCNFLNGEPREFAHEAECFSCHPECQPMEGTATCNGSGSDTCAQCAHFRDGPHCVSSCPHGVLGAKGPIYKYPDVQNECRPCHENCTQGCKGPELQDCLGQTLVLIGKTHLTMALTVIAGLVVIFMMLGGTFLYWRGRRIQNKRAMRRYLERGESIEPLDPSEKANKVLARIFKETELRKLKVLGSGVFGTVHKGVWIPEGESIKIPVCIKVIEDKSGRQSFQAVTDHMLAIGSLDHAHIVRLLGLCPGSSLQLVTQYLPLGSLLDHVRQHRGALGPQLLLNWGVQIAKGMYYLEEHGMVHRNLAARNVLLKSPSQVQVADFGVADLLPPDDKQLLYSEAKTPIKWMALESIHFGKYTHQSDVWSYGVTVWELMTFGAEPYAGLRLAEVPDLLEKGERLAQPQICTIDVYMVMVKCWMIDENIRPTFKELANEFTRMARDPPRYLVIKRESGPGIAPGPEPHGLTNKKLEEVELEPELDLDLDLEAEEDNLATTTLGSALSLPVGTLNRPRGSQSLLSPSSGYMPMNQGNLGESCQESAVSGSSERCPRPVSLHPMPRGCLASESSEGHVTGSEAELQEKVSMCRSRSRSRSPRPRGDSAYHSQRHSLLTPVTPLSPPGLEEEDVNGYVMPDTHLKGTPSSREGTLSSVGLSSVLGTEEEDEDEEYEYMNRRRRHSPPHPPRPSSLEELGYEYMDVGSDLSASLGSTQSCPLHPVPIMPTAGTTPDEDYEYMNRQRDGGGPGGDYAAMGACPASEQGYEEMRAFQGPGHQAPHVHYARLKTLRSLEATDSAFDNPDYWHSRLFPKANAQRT
- procedure-text: cell-based or functional assay
Please respond with reported BT-474 proliferation % inhibition for every item in the list.
Give the value in % but do not write % after it.

Name the reported BT-474 proliferation % inhibition value associated with the binder MOR13754 (antibody, human IgG1, kappa, V domains shown, tested as IgG) VH: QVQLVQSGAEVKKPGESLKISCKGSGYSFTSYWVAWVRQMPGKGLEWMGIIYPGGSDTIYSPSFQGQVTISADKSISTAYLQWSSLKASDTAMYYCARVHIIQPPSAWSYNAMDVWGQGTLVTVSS VL: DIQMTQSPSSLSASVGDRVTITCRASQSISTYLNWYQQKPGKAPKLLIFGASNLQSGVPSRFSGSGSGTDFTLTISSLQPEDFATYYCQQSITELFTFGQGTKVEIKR
17

Name the reported BT-474 proliferation % inhibition value associated with the binder MOR13870 (antibody, human IgG1, kappa, V domains shown, tested as IgG) VH: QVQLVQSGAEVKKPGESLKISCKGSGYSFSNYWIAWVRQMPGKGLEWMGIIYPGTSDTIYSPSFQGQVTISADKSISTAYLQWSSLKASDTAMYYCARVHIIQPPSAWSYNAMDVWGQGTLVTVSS VL: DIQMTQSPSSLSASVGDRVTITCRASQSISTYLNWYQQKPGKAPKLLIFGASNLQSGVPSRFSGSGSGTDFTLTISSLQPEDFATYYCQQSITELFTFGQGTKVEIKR
43

Name the reported BT-474 proliferation % inhibition value associated with the binder MOR13762 (antibody, human IgG1, kappa, V domains shown, tested as IgG) VH: QVQLVQSGAEVKKPGESLKISCKGSGYSFTNTWVAWVRQMPGKGLEWMGIIYPGQSDTIYSPSFQGQVTISADKSISTAYLQWSSLKASDTAMYYCARVHIIQPPSAWSYNAMDVWGQGTLVTVSS VL: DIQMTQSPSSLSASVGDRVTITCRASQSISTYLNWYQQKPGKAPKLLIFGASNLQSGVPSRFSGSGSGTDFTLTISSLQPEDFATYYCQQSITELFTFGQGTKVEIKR
37

Name the reported BT-474 proliferation % inhibition value associated with the binder MOR13750 (antibody, human IgG1, kappa, V domains shown, tested as IgG) VH: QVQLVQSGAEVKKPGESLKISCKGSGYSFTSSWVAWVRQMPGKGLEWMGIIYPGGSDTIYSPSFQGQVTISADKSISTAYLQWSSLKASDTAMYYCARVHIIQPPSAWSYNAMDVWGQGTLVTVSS VL: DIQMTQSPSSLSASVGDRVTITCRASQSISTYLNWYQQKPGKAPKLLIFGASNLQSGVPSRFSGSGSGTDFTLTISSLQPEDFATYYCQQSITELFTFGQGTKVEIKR
21

Name the reported BT-474 proliferation % inhibition value associated with the binder MOR13868 (antibody, human IgG1, kappa, V domains shown, tested as IgG) VH: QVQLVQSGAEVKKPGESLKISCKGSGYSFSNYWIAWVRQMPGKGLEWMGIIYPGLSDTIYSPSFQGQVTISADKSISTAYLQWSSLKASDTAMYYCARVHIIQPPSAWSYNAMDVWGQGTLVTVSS VL: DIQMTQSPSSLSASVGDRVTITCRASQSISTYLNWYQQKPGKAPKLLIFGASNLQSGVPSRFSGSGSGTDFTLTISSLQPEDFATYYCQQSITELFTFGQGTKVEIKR
39

Name the reported BT-474 proliferation % inhibition value associated with the binder MOR13759 (antibody, human IgG1, kappa, V domains shown, tested as IgG) VH: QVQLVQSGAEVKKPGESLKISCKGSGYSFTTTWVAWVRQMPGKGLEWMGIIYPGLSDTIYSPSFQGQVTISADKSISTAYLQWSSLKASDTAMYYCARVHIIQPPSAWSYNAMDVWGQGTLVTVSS VL: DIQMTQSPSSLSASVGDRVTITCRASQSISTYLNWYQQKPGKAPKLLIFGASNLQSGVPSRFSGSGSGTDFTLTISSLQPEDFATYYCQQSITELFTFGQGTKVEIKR
35

Name the reported BT-474 proliferation % inhibition value associated with the binder MOR13766 (antibody, human IgG1, kappa, V domains shown, tested as IgG) VH: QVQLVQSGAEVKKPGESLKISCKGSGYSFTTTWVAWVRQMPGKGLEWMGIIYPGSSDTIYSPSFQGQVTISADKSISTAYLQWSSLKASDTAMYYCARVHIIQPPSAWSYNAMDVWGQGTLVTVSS VL: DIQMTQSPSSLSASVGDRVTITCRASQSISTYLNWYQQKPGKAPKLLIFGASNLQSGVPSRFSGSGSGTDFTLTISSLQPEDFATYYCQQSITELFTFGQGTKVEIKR
37

Name the reported BT-474 proliferation % inhibition value associated with the binder MOR13761 (antibody, human IgG1, kappa, V domains shown, tested as IgG) VH: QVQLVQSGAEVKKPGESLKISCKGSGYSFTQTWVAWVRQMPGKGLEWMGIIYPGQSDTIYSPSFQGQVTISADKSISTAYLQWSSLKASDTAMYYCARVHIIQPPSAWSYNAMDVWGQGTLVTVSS VL: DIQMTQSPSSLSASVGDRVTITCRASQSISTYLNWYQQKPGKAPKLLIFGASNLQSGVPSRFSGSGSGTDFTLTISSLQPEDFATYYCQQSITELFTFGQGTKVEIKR
36
